# study_system: TNFα (tumor necrosis factor α) (UniProt P01375 77-233)
# Sequence (P01375 77-233 limits assumed): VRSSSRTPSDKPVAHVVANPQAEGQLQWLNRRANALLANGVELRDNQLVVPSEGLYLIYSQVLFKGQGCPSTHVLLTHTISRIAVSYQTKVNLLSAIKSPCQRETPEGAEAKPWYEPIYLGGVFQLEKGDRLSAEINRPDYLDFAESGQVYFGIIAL
# assay_text: BioVeris ECL competition assay with a labeled competitor; negative control

binder	IC50
BBIt-AV-V1 (BBIt-VEGF-V1-A13I-S25R-M27A-L29P-S31A-F50K-V52T, peptide SKHSQIT) (designed binder) DPDDESSKPCCDQCICTKSNPPQCRCRDARPNACHSACKSCACSKHSQITCKCTDITDFCYEPCKPSE	> 250 µM
